assayName: Oral bioavailability in monkey at 0.986 mg/kg administered via gavage by LC-MS/MS analysis
Assay type: ADME, organism-based, Macaca mulatta
Design: dosed compound name [14C]Rivoglitazone
condition: rhesus monkey, in vivo

>  <molecule>
COc1ccc2nc(COc3ccc(CC4SC(=O)NC4=O)cc3)n(C)c2c1.Cl (racemic)

>  <bioavailability>
76.1%

$$$$

====

assayName: AUC (0 to infinity) in monkey at 0.0986 mg/kg, iv administered via tail vein by LC-MS/MS analysis
Assay type: ADME, organism-based, Macaca mulatta
Set-up: time infinity, dose 0.0986 mg/kg, dosed compound name [14C]Rivoglitazone, route intravenous
condition: rhesus monkey, plasma
propertyLabel: AUC(0-inf)

>  <molecule>
COc1ccc2nc(COc3ccc(CC4SC(=O)NC4=O)cc3)n(C)c2c1.Cl (racemic)

>  <measuredResult>
5000 ng·h/mL

$$$$

Attribution: ChEMBL document CHEMBL3525983
